Assay: growth inhibition of non-replicating M. tuberculosis (AID 488890);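 note: plate controls were DMSO cells for no effect and high antibiotic wells for full effect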
Details: Mycobacterium tuberculosis non-replicating, at 25 µM, stronger effect = higher value
Among all 320,000 compounds or so, about 1,300 (0.41%) were called active. Not shown: some 3% with an inconclusive outcome. These entries were drawn from the full list. Results with a measured potency or affinity are listed apart.
Each entry below lists one item and its recorded inhibition value.
Provide only the numeric value, understood in %.

// known answers, use as guide
Cc1cc(C)c(NC(=S)N2CCN(c3ccc([N+](=O)[O-])cn3)CC2)cc1C: -3
CC(=O)N[C@@H](Cc1c[nH]c2ccccc12)C(=O)OCc1ccc(C#N)cc1: 5.82

Give the measured inhibition of CCNC(=O)C(=O)Nc1ccc(OC)c(Cl)c1 .
-0.29

Give the measured inhibition of CCCOc1ccc(CCC(=O)N/N=C/c2ccco2)cc1 .
64.4

Give the measured inhibition of O=C(Cc1c[nH]c2ccccc12)NCc1ccc(Cl)cc1 .
12.5

Give the measured inhibition of COc1ccc([C@H]2CC(=O)C=C(c3cccc(OC(F)(F)F)c3)C2)cc1 .
24.7

Give the measured inhibition of Cc1ccc(-c2cc(-c3ccc(C)cc3)[n+](C)o2)cc1 .
24.7

Give the measured inhibition of O=C(/C=C/c1ccccc1)NCCc1ccccc1 .
1.5

Give the measured inhibition of O=C(CCCc1c[nH]c2ccccc12)NCc1ccc2c(c1)OCO2 .
7.12
